# Target under test: T1, IL-11 (Cat. 12225-HNCE, Sino Biological Inc.) (UniProt P20809 22-199, limits assumed)
# T1 sequence (looked up): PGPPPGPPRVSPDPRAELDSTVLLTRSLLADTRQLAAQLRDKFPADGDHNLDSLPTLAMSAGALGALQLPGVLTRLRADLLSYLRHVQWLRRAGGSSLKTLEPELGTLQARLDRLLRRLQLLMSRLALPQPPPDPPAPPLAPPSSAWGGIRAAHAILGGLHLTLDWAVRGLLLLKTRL
# Protocol notes: cell-based or functional assay
This listing pairs binders with measured Blocking activity (IC50), STAT3-luc reporter.
Field: numeric (µg/mL). Do not append units.

In the examples that follow, each entry is paired with its recorded Blocking activity (IC50), STAT3-luc reporter.
Binder	Measurement
hz8C8-VHm1 + hz8C8-VLm9 (antibody, human IgG1, kappa, V domains shown, human IgG1 constant regions) VH: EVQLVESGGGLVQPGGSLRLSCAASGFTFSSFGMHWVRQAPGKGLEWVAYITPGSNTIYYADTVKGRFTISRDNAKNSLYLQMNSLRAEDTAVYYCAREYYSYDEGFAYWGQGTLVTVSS VL: EIVLTQSPATLSLSPGERATLSCSVSDLIPSQYLAWYQQKPGQAPRLLIYRTSNLASGIPARFSGSGSGTDFTLTISSLEPEDFAVYYCQQGVDVPFTFGQGTKLEIKR	0.012
hz8C8-VHm5 + hz8C8-VLm7 (antibody, human IgG1, kappa, V domains shown, human IgG1 constant regions) VH: EVQLVESGGGLVQPGGSLRLSCAASGFTFSSFGMSWVRQAPGKGLEWVAYITPGSNTIYYADTVKGRFTISRDNAKNSLYLQMNSLRAEDTAVYYCAREYYSYDEGFAYWGQGTLVTVSS VL: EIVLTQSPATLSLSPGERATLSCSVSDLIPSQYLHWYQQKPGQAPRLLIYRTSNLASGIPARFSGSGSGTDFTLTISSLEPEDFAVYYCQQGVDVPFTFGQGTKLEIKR	0.01

Now let's try a different one.
Query string: Please supply the value of reported Blocking activity (IC50), STAT3-luc reporter for the item hz8C8-VHm1-m3 + hz8C8-VLm7-m4 (antibody, human IgG1, kappa, V domains shown, human IgG1 constant regions) VH: EVQLVESGGGLVQPGGSLRLSCAASGFTFSSFGMHWVRQAPGKGLEWVAYITPGSNTIYYADTVKGRFTISRDNAKNSLYLQMNSLRAEDTAVYYCAREYSSYDEGFAYWGQGTLVTVSS VL: EIVLTQSPATLSLSPGERATLSCSVSDLIPSQYLHWYQQKPGQAPRLLIYRTSNRASGIPARFSGSGSGTDFTLTISSLEPEDFAVYYCQQGVDVPFTFGQGTKLEIKR
Result string: 0.02
